System: human whole blood
Assay: Whole blood cell model: anti-CD3 stimulation, cytokine measurement
Format: cell-based
Measurement setup: + Anti-CD3, + CytoSorb, test 2
# IL-8 serum level annotations
Provide a numeric answer, followed by its unit.

Known IL-8 serum level results, listed for orientation:
| Molecule smiles | Assay metric | Value reported |
| --- | --- | --- |
| COc1c(C)c2c(c(O)c1C/C=C(\C)CCC(=O)O)C(=O)OC2 | IL-8 serum level | 3704 pg/mL |
| C[C@H]1C[C@@H]2[C@H]([C@@H](O)C[C@@]3(C)[C@H]2CC[C@]3(O)C(=O)CO)[C@@]2(C)C=CC(=O)C=C12 | IL-8 serum level | 242 pg/mL |

Param item = C=CC[C@@H]1/C=C(\C)C[C@H](C)C[C@H](OC)[C@H]2O[C@@](O)(C(=O)C(=O)N3CCCC[C@H]3C(=O)O[C@H](/C(C)=C/[C@@H]3CC[C@@H](O)[C@H](OC)C3)[C@H](C)[C@@H](O)CC1=O)[C@H](C)C[C@@H]2OC ; retrieve measured IL-8 serum level.
8613 pg/mL

Param item = Sc1ncnc2nc[nH]c12 ; retrieve measured IL-8 serum level.
4175 pg/mL

---

Assay: Dynamic CytoSorb adsorption setup (scaled-down circuit, whole blood)
Type: in vitro ADME, human
Measurement setup: dynamic ex vivo circuit, 400 mL human whole blood, 30 mL cartridge, 4 h
Assay metric: adsorption (removal) by CytoSorb
Provide a numeric answer, followed by its unit.

Known adsorption (removal) by CytoSorb results, listed for orientation:
| Compound | adsorption (removal) by CytoSorb |
| --- | --- |
| Sc1ncnc2nc[nH]c12 [6-MP, 6-mercaptopurine] | 47 ± 16% |
| C[C@H]1C[C@@H]2[C@H]([C@@H](O)C[C@@]3(C)[C@H]2CC[C@]3(O)C(=O)CO)[C@@]2(C)C=CC(=O)C=C12 [MPR, methylprednisolone] | 92 ± 3% |
| COc1c(C)c2c(c(O)c1C/C=C(\C)CCC(=O)O)C(=O)OC2 [MPA, mycophenolic acid] | 76 ± 2% |

Param item = C=CC[C@@H]1/C=C(\C)C[C@H](C)C[C@H](OC)[C@H]2O[C@@](O)(C(=O)C(=O)N3CCCC[C@H]3C(=O)O[C@H](/C(C)=C/[C@@H]3CC[C@@H](O)[C@H](OC)C3)[C@H](C)[C@@H](O)CC1=O)[C@H](C)C[C@@H]2OC [TAC, tacrolimus] ; retrieve measured adsorption (removal) by CytoSorb.
18 ± 16%

---

Assay: Whole blood cell model: immunosuppressant serum levels after CytoSorb treatment
Assay type: in vitro ADME, human
Measurement setup: overnight incubation, p < 0.05, n = 6
Assay metric: reduction in serum level following CytoSorb treatment (in words)

| Molecule smiles | Value reported |
| --- | --- |
| COc1c(C)c2c(c(O)c1C/C=C(\C)CCC(=O)O)C(=O)OC2 | significant reduction |
| C[C@H]1C[C@@H]2[C@H]([C@@H](O)C[C@@]3(C)[C@H]2CC[C@]3(O)C(=O)CO)[C@@]2(C)C=CC(=O)C=C12 | significant reduction |
| Sc1ncnc2nc[nH]c12 | significant reduction |

---

# TNF-α serum level annotations
System: human whole blood
Assay: Whole blood cell model: anti-CD3 stimulation, cytokine measurement
Assay type: cell-based
Measurement setup: + Anti-CD3, + CytoSorb, test 1
Return type: number; implicit unit pg/mL.

Param item = Sc1ncnc2nc[nH]c12 [6-MP, 6-mercaptopurine] ; retrieve measured TNF-α serum level.
12

---

System: human whole blood
Assay: Whole blood cell model: LPS stimulation, cytokine measurement
Assay type: cell-based
Measurement setup: + CytoSorb, test 3
# IL-8 serum level annotations
Return type: number; implicit unit pg/mL.

Known IL-8 serum level results, listed for orientation:
| Molecule | System under test | IL-8 serum level [pg/mL] |
| --- | --- | --- |
| C[C@H]1C[C@@H]2[C@H]([C@@H](O)C[C@@]3(C)[C@H]2CC[C@]3(O)C(=O)CO)[C@@]2(C)C=CC(=O)C=C12 [MPR, methylprednisolone] | human whole blood | 7104 |
| C=CC[C@@H]1/C=C(\C)C[C@H](C)C[C@H](OC)[C@H]2O[C@@](O)(C(=O)C(=O)N3CCCC[C@H]3C(=O)O[C@H](/C(C)=C/[C@@H]3CC[C@@H](O)[C@H](OC)C3)[C@H](C)[C@@H](O)CC1=O)[C@H](C)C[C@@H]2OC [TAC, tacrolimus] | human whole blood | 50044 |
| COc1c(C)c2c(c(O)c1C/C=C(\C)CCC(=O)O)C(=O)OC2 [MPA, mycophenolic acid] | human whole blood | 15529 |

Give IL-8 serum level (human whole blood) of the following molecule: Sc1ncnc2nc[nH]c12 [6-MP, 6-mercaptopurine]
7104

---

# fraction unbound annotations
Assay: Determination of protein binding by ultrafiltration
Assay type: in vitro ADME
Measurement setup: human plasma, ultrafiltration 30 kDa cutoff; read-out: Protein Binding in Plasma, Current Study (converted)
Give a plain numeric answer without units written out.

Known fraction unbound results, listed for orientation:
| Molecule smiles | Value reported |
| --- | --- |
| Sc1ncnc2nc[nH]c12 | 0.662 |
| COc1c(C)c2c(c(O)c1C/C=C(\C)CCC(=O)O)C(=O)OC2 | 0.021 |

Switching to the query record.
Param item = C[C@H]1C[C@@H]2[C@H]([C@@H](O)C[C@@]3(C)[C@H]2CC[C@]3(O)C(=O)CO)[C@@]2(C)C=CC(=O)C=C12 ; retrieve measured fraction unbound.
0.066

---

Assay: Static CytoSorb adsorption setup (spiked plasma with CytoSorb resin)
Type: in vitro ADME, human
Measurement setup: plasma:resin 1:10 v/v, 60 min, 37 °C, n = 3
# reduction of level in plasma by CytoSorb annotations
Return type: number; implicit unit %.

| Molecule smiles | Output unit | reduction of level in plasma by CytoSorb |
| --- | --- | --- |
| Sc1ncnc2nc[nH]c12 | % | 33 |
| C[C@H]1C[C@@H]2[C@H]([C@@H](O)C[C@@]3(C)[C@H]2CC[C@]3(O)C(=O)CO)[C@@]2(C)C=CC(=O)C=C12 | % | 91 |

Switching to the query record.
Param item = COc1c(C)c2c(c(O)c1C/C=C(\C)CCC(=O)O)C(=O)OC2 ; retrieve measured reduction of level in plasma by CytoSorb.
37

---

Test system: human whole blood
Assay: Whole blood cell model: LPS stimulation, cytokine measurement
Type: cell-based
Measurement setup: + CytoSorb, test 3
# IL-6 serum level annotations
Provide a numeric answer, followed by its unit.

Known IL-6 serum level results, listed for orientation:
| Compound | IL-6 serum level |
| --- | --- |
| COc1c(C)c2c(c(O)c1C/C=C(\C)CCC(=O)O)C(=O)OC2 [MPA, mycophenolic acid] | 16855 pg/mL |
| C[C@H]1C[C@@H]2[C@H]([C@@H](O)C[C@@]3(C)[C@H]2CC[C@]3(O)C(=O)CO)[C@@]2(C)C=CC(=O)C=C12 [MPR, methylprednisolone] | 3799 pg/mL |
| C=CC[C@@H]1/C=C(\C)C[C@H](C)C[C@H](OC)[C@H]2O[C@@](O)(C(=O)C(=O)N3CCCC[C@H]3C(=O)O[C@H](/C(C)=C/[C@@H]3CC[C@@H](O)[C@H](OC)C3)[C@H](C)[C@@H](O)CC1=O)[C@H](C)C[C@@H]2OC [TAC, tacrolimus] | 23302 pg/mL |

Switching to the query record.
Param item = Sc1ncnc2nc[nH]c12 [6-MP, 6-mercaptopurine] ; retrieve measured IL-6 serum level.
3799 pg/mL

---

System: human whole blood
Assay: Whole blood cell model: anti-CD3 stimulation, cytokine measurement
Assay type: cell-based
Measurement setup: + Anti-CD3, + CytoSorb, test 3
# IL-8 serum level annotations

Known IL-8 serum level results, listed for orientation:
| Compound | IL-8 serum level |
| --- | --- |
| COc1c(C)c2c(c(O)c1C/C=C(\C)CCC(=O)O)C(=O)OC2 [MPA, mycophenolic acid] | 4924 pg/mL |
| C[C@H]1C[C@@H]2[C@H]([C@@H](O)C[C@@]3(C)[C@H]2CC[C@]3(O)C(=O)CO)[C@@]2(C)C=CC(=O)C=C12 [MPR, methylprednisolone] | 686 pg/mL |
| Sc1ncnc2nc[nH]c12 [6-MP, 6-mercaptopurine] | 686 pg/mL |

Switching to the query record.
Param item = C=CC[C@@H]1/C=C(\C)C[C@H](C)C[C@H](OC)[C@H]2O[C@@](O)(C(=O)C(=O)N3CCCC[C@H]3C(=O)O[C@H](/C(C)=C/[C@@H]3CC[C@@H](O)[C@H](OC)C3)[C@H](C)[C@@H](O)CC1=O)[C@H](C)C[C@@H]2OC [TAC, tacrolimus] ; retrieve measured IL-8 serum level.
25920 pg/mL

---

# mean clearance rate annotations
Assay: Dynamic CytoSorb adsorption setup (scaled-down circuit, whole blood)
Assay type: in vitro ADME, human
Measurement setup: CytoSorb treatment, at 15 min, Equation (2)
Protocol: To quantify the depletion of selected immunosuppressants during CytoSorb treatment under dynamic conditions, a scaled-down extracorporeal circulation system was established, consisting of a 30 mL CytoSorb adsorption cartridge and a pediatric tubing set filled with 400 mL of freshly drawn human whole blood (Figure 1b). […] MPA was determined using a validated test for the Cobas c311 autoanalyzer from Roche (Basel, Switzerland). 6-MP was quantified by reversed-phase HPLC [17, 18]. […]

| Molecule smiles | Value reported |
| --- | --- |
| C[C@H]1C[C@@H]2[C@H]([C@@H](O)C[C@@]3(C)[C@H]2CC[C@]3(O)C(=O)CO)[C@@]2(C)C=CC(=O)C=C12 | ~49 mL/min |

Switching to the query record.
Param item = Sc1ncnc2nc[nH]c12 ; retrieve measured mean clearance rate.
~31 mL/min

Where do these numbers come from? They come from paper PMC12655457.
